Origin of the recorded values: patent US20210315893A1

Biological target: human GPCR sphingosine 1-phosphate receptor 1 (Homo sapiens)
Construct: host or cells: CHO
Sequence (P21453 whole entry): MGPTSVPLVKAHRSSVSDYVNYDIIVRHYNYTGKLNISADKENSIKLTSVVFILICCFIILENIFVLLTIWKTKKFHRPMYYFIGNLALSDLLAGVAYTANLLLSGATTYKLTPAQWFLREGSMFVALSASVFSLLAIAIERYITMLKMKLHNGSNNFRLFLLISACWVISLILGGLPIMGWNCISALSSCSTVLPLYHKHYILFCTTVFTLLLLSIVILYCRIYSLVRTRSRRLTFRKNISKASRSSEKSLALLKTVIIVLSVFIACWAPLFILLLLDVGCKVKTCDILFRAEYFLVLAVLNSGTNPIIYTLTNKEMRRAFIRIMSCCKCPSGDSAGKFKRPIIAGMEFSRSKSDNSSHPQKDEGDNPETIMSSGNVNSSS
Experiment: S1PR1 selectivity Ca2+ flux assay (antagonist readout)
Type: cell-based
Details: antagonist readout, CHO cells overexpressing human S1PR1 and Gq, S1P at EC80 (6 nM); read-out: S1P1 EC50 (nM), S1P1 antagonist EC50
Method: 50 μL of Chinese hamster ovary (CHO) cells stably overexpressing human S1PR1 or S1PR5 are seeded in 384 well sterile microplates (7,500 cells/well or 10,000 cells/well respectively) and are incubated overnight at 37° C. under 5% CO2. […] 10 μL of diluted compound is added to the cells using the FDSS/pCELL and intracellular calcium changes are measured immediately by recording fluorescence during 3 min (agonist readout). […]
QUANTITY_KIND: EC50

Worked cases, answers included:
• N#Cc1cc2[nH]c(Cc3nn(CC(=O)N4CCC(O)(C(F)(F)F)C4)c(=O)c4ccccc34)nc2cc1OCC(F)F (stereo not drawn) = ≥ 19800 nM
• O=C(O)Cn1nc(Cc2nc3cc(OCC4CC4)c(C(F)(F)F)cc3[nH]2)c2ccccc2c1=O = 1840 nM
• N#Cc1cc2[nH]c(Cc3nn(CC4CCCN4)c(=O)c4ccccc34)nc2cc1OCC(F)F (stereo not drawn) = ≥ 19800 nM
• O=C(O)Cn1nc(Cn2cc3cc(OCC(F)(F)F)c(Cl)cc3n2)c2ccccc2c1=O = ≥ 19900 nM
• O=C(Cc1nn(Cc2nc3cc(OCC(F)F)c(Cl)cc3[nH]2)c2ccccc2c1=O)N1CCOCC1 = ≥ 19800 nM
• O=C(O)C1(c2nn(Cc3cn4cc(OCC5CC5)c(Cl)cc4n3)c3ccccc3c2=O)CC1 = ≥ 19800 nM
• O=C(Cn1nc(Cc2nc3cc(OC(F)(F)F)c(Cl)cc3[nH]2)c2ccccc2c1=O)N1CCOCC1 = ≥ 19900 nM
• O=C(O)Cn1nc(Cc2nc3cc(Cl)c(OCC(F)F)cc3[nH]2)c2c(c1=O)CCCC2 = ≥ 19800 nM

Please list EC50 recorded for the compound COc1cc2[nH]c(Cc3nn(CC(=O)O)c(=O)c4c3CCCC4)nc2cc1Cl
≥ 19800 nM

Please list EC50 recorded for the compound CC(C(=O)O)c1nn(Cc2cn3cc(OCC4CC4)c(Cl)cc3n2)c2ccccc2c1=O (stereo not drawn)
≥ 19800 nM

Please list EC50 recorded for the compound N#Cc1cc2nn(Cc3nn(CC(=O)N4CCOCC4)c(=O)c4ccccc34)cc2cc1OCC1CC1
≥ 19800 nM

Please list EC50 recorded for the compound O=C(O)Cc1nn(Cc2cn3cc(OCC4CC4)c(Cl)cc3n2)c2cc(F)ccc2c1=O
≥ 19800 nM

Please list EC50 recorded for the compound N#Cc1cc2nc(Cc3nn(CC(=O)N4CCC[C@H]4CO)c(=O)c4ccccc34)[nH]c2cc1OCC(F)F
≥ 19800 nM

Please list EC50 recorded for the compound N#Cc1cc2[nH]c(Cc3nn(C4CCN(CC(=O)O)C4)c(=O)c4ccccc34)nc2cc1OCC(F)F (stereo not drawn)
≥ 19800 nM

Please list EC50 recorded for the compound CC1(C)CCN(C(=O)Cn2nc(Cc3nc4cc(OCC(F)F)c(C#N)cc4[nH]3)c3ccccc3c2=O)CC1
≥ 19800 nM

Please list EC50 recorded for the compound O=C(O)Cn1nc(Cc2cn3cc(OCC4CC4)c(Cl)cc3n2)c2ccccc2c1=O
≥ 19800 nM

Please list EC50 recorded for the compound CC1(C)CN(C(=O)Cn2nc(Cc3nc4cc(OCC(F)F)c(C#N)cc4[nH]3)c3ccccc3c2=O)CCO1
≥ 19800 nM

Please list EC50 recorded for the compound C[C@@H](C(=O)O)c1nn(Cc2cn3cc(OCC4CC4)c(Cl)cc3n2)c2ccccc2c1=O
≥ 19800 nM
